Taken from patent US5780265.

Target: Human Factor XIa (human, UniProt P03951)
Experiment: enzyme inhibition of FXIa, chromogenic substrate, fit to the tight-binding equation (apparent Ki*)
Where no end group is shown, it is not given here.
As shown below, each of these binders has a reported pKi value.
Reminder that pKi is minus the log10 of a molar concentration.

Before answering, review these 2 worked examples.
>>> value_observed("KALI-PV (designed binder) VREVCSEQAEPGHCRAAHPRWYFDVTEGKCAPFVYGGCGGNRNNFDTEEYCAAVCGSA")
8.39
>>> value_observed("KALI-DV (designed binder) VREVCSEQAEDGHCRAAHPRWYFDVTEGKCAPFVYGGCGGNRNNFDTEEYCAAVCGSA")
8.89

Let's switch to this binder now.
Q: Consider the binder KALI-PY (designed binder, not fully specified (bridges); cysteine pairing not given here) VREVCSEQAEPGHCRAAHPRWYFDVTEGKCAPFYYGGCGGNRNNFDTEEYCAAVCGSA and give its measured pKi.
Result: 7.93
